Test system: OVCAR-8 ovarian
Experiment: NCI tumour cell line growth inhibition, 48 h
PROPERTY MEASURED: TGI

Worked examples follow.
# COMPOUND, TGI
measured = [
    ("O=C1CC(C(COCc2ccccc2)OCc2ccccc2)CC(=O)N1 (stereo unspecified)", "> 100 µM"),
    ("Cn1c(COC(=O)NC2CCCCC2)c(COC(=O)NC2CCCCC2)c2ccc3cc(C=O)ccc3c21", "> 100 µM"),
    ("COC1=CC(=O)c2nc3ccccc3c3ccnc1c23", "> 53.3 µM"),
    ("COc1ccccc1NC(=O)C1=C(C)NC(C)=C(C(=O)Nc2ccccc2OC)C1c1cccc2ccccc12", "> 100 µM"),
]

Which TGI value belongs to COc1ccc(C2C(C#N)=C(S)N(C3OC(CO)C(O)C(O)C3O)C(C)=C2C(C)=O)cc1 (stereo unspecified) ?
> 100 µM

State the recorded TGI for this entry: Nc1c(C(=O)NC23CC4CC(CC(C4)C2)C3)[n+]([O-])c2ccccc2[n+]1[O-]
> 100 µM

GET /values?readout=TGI&item= COc1cc(S(=O)(=O)Nc2ccc(-c3csc(N4C(=O)C(C)SC4c4ccccc4)n3)cc2)ccc1Cl (stereo unspecified)
> 100 µM
